Each record here notes measured viscosity.
- assay-comment: xn = mol fraction of the nth substance listed
- condition-parameters: 303.15 K; 101.33 kPa; x2 = 0.4

| compound | units-of-measure | viscosity |
| --- | --- | --- |
| CC[N+](=O)[O-] + CCC(C)O | mPa·s | 0.716 |
| CC[N+](=O)[O-] + CCCO | mPa·s | 0.694 |
| CC[N+](=O)[O-] + CC(C)O | mPa·s | 0.647 |
| CC[N+](=O)[O-] + CO | mPa·s | 0.504 |
| CC[N+](=O)[O-] + CC(C)(C)O | mPa·s | 0.73 |
| CC[N+](=O)[O-] + CCO | mPa·s | 0.583 |
